System: Aedes aegypti larvae
Test: larval motility relative to same well at 0 h (fraction); higher = more motile (less active compound), active = 0.4 or less
Details: 10 µM; 2 h
property name: larval motility
Respond with the number and no other words.

Consider the worked cases shown below.
1. Cc1ccc(NC(=O)c2cc(Cl)ccc2O)cc1 :: 0.656
2. O=C(c1ccccc1)N1CCN(c2ccccc2NC(=O)C(Cl)(Cl)Cl)CC1 :: 1.33
3. O=C(CC1Sc2ncnn2C1=O)Nc1ccc(Br)cc1 (stereo unspecified) :: 0.859
4. O=C(NC(=O)N1CCCc2ccccc21)c1ccc(Cl)cc1Cl :: 0.529
5. Clc1cc2nc(C3CCNCC3)n(Cc3ccc(CNCCc4cnc[nH]4)cc3)c2cc1Cl :: 0.575

Incoming: Requested field: larval motility. Item: `NNC(=O)c1ccncc1`
Outgoing: 0.924

----------
System: Aedes aegypti larvae
Assay: larval motility relative to same well at 0 h (fraction); higher = more motile (less active compound), active = 0.4 or less
Details: 10 µM; 2 h
property name: larval motility
# output: bare number, no unit

Incoming: Could you share which larval motility value was measured for `OCCC#Cc1nc(-c2ccc(F)cc2)c(-c2ccncc2)n1CCCc1ccccc1` ?
Outgoing: 0.457

Incoming: Please do the same for `CC(C)(C)c1cccc(-c2nc3cc(C(=N)N)ccc3[nH]2)c1O` as well.
Outgoing: 1.04

Incoming: Also Fc1cccc(Cl)c1C1CC(c2ccc(Cl)cc2)Nc2nnnn21 (stereo not given) ?
Outgoing: 1.01

----------
Tested on: Aedes aegypti larvae
Test: larval motility relative to same well at 0 h (fraction); higher = more motile (less active compound), active = 0.4 or less
Settings: 10 µM; 2 h
property name: larval motility
Please respond with just the number, no unit label.

For orientation, consider the following solved cases.
1. O=C(N[C@H](CCS)C(=O)N[C@H](Cc1ccccc1)C(=O)O)c1cc2ccccc2[nH]1 :: 1.47
2. O=C(NC1CCCc2c1[nH]c1ccc(Cl)cc21)c1ccccn1 (stereo unspecified) :: 1.38
3. CN(C)CCNC(=O)c1cccc2cccnc12 :: 0.941

Incoming: Item: `Nc1cccc(-c2nc(N)nc(NC3Cc4ccccc4C3)n2)c1` Test system: Aedes aegypti larvae Read-out: larval motility Value: ?
Outgoing: 1.08

Incoming: Next up: `O=C(Nc1cccc(C2=NCCN2)c1)c1ccc(-c2ccc(C(=O)Nc3cccc(C4=NCCN4)c3)cc2)cc1`
Outgoing: 0.648

Incoming: Further, for `Nc1ccc2oc(=O)ccc2c1I` ?
Outgoing: 0.518

Incoming: Okay, and `Cc1c(N)cccc1Cn1ccc(OCCc2cccs2)cc1=O` ?
Outgoing: 0.953

Incoming: Same thing, different compound: CCc1ccc(C2CC(C(F)(F)F)n3ncc(C(=O)NCc4ccc(OC)cc4)c3N2)cc1 (stereo unspecified)
Outgoing: 0.923

Incoming: And what about the compound `Cc1ccc(S(=O)(=O)Nc2cccc3cccnc23)cc1` ?
Outgoing: 1.02

Incoming: Entry `COC(=O)Nc1nc2c(C)cccc2[nH]1` please
Outgoing: 0.678

Incoming: Let us now turn to `C[C@H](Cn1cnc2c(N)ncnc21)OCP(=O)(O)O`
Outgoing: 1.31

----------
Tested on: Aedes aegypti larvae
Test: larval motility relative to same well at 0 h (fraction); higher = more motile (less active compound), active = 0.4 or less
Settings: 10 µM; 2 h
Each record's larval motility is compared with lowest: < 0.8; middle: ≥ 0.8 and < 1; highest: ≥ 1 to give its class.

Incoming: Field: class (larval motility) — entry: `O=c1cc(OCc2ccccc2)ccn1Cc1ccccc1`
Outgoing: highest

Incoming: COc1ccc(C2=CC(c3c(F)cccc3Cl)n3ncnc3N2)cc1 (centres undefined) ?
Outgoing: lowest

Incoming: Note, next up: CCC(C)(C)c1ccc(CC(C)CN2C[C@@H](C)O[C@@H](C)C2)cc1 (some centres undefined)
Outgoing: middle

Incoming: Would you mind doing `CC(C)(C)c1ccc(Oc2ccc(N)cc2)cc1` as well?
Outgoing: middle

Incoming: And `CC(C)(C)NC(=O)[C@@H]1C[C@@H]2CCCC[C@@H]2CN1C[C@@H](O)[C@H](Cc1ccccc1)NC(=O)[C@H](CC(N)=O)NC(=O)c1ccc2ccccc2n1` ?
Outgoing: highest

----------
Test system: Aedes aegypti larvae
Assay: larval motility relative to same well at 0 h (fraction); higher = more motile (less active compound), active = 0.4 or less
Details: 10 µM; 24 h
property name: larval motility
Quick one: just the number, no unit, thanks!

Incoming: Endpoint output: larval motility of COc1ccc(C2=CC(c3c(F)cccc3Cl)n3ncnc3N2)cc1 (centres undefined) . Value?
Outgoing: 0.619

Incoming: Could you do the same for `O=c1[nH]c(=O)n(Cc2cccc(Oc3ccccc3)c2)cc1Nc1ccccc1` , please?
Outgoing: 0.791

Incoming: Lookup `CC(=O)Nc1cc(NS(=O)(=O)c2ccc(Cl)cc2)cc2c(Cl)n[nH]c12`
Outgoing: 0.752

Incoming: Try this compound too: `Nc1nc(Nc2ccc3nc(-c4ccc(F)cc4)cc(N)c3c2)cc(-c2ccccc2)n1`
Outgoing: 0.261

----------
Tested on: Aedes aegypti larvae
Experiment: larval motility relative to same well at 0 h (fraction); higher = more motile (less active compound), active = 0.4 or less
Settings: 10 µM; 24 h
Catalogue of larval motility readings, one per entry.
The answer should be a number; do not append a unit.

1) N#CCN1C(=O)COc2cc(F)c(N3C(=O)c4ccccc4C3=O)cc21 :: 1.91
2) O=S(=O)(NCB(O)O)c1cc2c(Cl)ccc(Cl)c2s1 :: 0.742

Incoming: Reported larval motility, molecule `CCO/N=C/c1ccc(OCCCCN2CCN(c3ccncc3)C2=O)cc1` : ____
Outgoing: 1.3

Incoming: Would you mind doing CC1CCc2c(N3CCC(O)CC3)c(F)cc3c(=O)c(C(=O)O)cn1c23 (stereo not given) as well?
Outgoing: 0.744

----------
System: Aedes aegypti larvae
Assay: larval motility relative to same well at 0 h (fraction); higher = more motile (less active compound), active = 0.4 or less
Details: 10 µM; 24 h
Known larval motility of a selection of molecules
Returns: the value as a bare number; no unit string appended.

Here are 5 molecules together with their reported answers.
1. Clc1ccc(Cn2c(CN3CCCC3)nc3ccccc32)cc1 :: 1.28
2. O=[N+]([O-])c1cn2c(n1)OC[C@@H](OCc1ccc(OC(F)(F)F)cc1)C2 :: 1.3
3. O=S(=O)(NCB(O)O)c1ccc(-c2nnn[nH]2)cc1C(F)(F)F :: 1.46
4. Cc1ncc([N+](=O)[O-])n1CC(C)O (centres undefined) :: 1.55
5. Cn1cncc1[C@@](N)(c1ccc(Cl)cc1)c1ccc2c(c1)c(-c1cccc(Cl)c1)cc(=O)n2C :: 0.876

Incoming: Using the record for `NCc1ccc(S(N)(=O)=O)cc1` , report its larval motility.
Outgoing: 0.66

Incoming: Continue with `CC[C@H]1OC(=O)[C@H](C)[C@@H](O[C@H]2C[C@@](C)(OC)[C@@H](O)[C@H](C)O2)[C@H](C)[C@@H](O[C@@H]2O[C@H](C)C[C@H](N(C)C)[C@H]2O)[C@](C)(O)C[C@@H](C)C(=O)[C@H](C)[C@@H](O)[C@]1(C)O`
Outgoing: 0.824

Incoming: Would you mind doing CC(N)C12CC3CC(CC(C3)C1)C2 (centres undefined) as well?
Outgoing: 0.773

Incoming: Record: `CCOC(=O)/C=C/[C@H](C[C@@H]1CCNC1=O)NC(=O)[C@@H](CC(=O)[C@@H](NC(=O)c1cc(C)on1)C(C)C)Cc1ccc(F)cc1`
Outgoing: 1.09

Incoming: Again, but for O=P(O)(O)C(CCCc1cccc(Oc2ccccc2)c1)S(=O)(=O)O (centres undefined)
Outgoing: 0.88

----------
Test system: Aedes aegypti larvae
Assay: larval motility relative to same well at 0 h (fraction); higher = more motile (less active compound), active = 0.4 or less
Settings: 10 µM; 2 h
Recorded larval motility by entry
// response body must contain only the number

Incoming: Which measured larval motility belongs to `CCOC(=O)/C=C/[C@H](C[C@@H]1CCNC1=O)NC(=O)[C@@H](CC(=O)[C@@H](NC(=O)c1cc(C)on1)C(C)C)Cc1ccc(F)cc1` , tested on Aedes aegypti larvae?
Outgoing: 1.26

Incoming: Now this one: `Cc1cc(CCOc2c(C)cc(-c3nnn(C)n3)cc2C)on1`
Outgoing: 0.857

Incoming: How about `C(=C\c1nc2ccccc2[nH]1)/c1ccc2c(c1)OCO2` ?
Outgoing: 0.765

Incoming: Note, next up: O=P(O)(O)C(CCCc1cccc(Oc2ccccc2)c1)S(=O)(=O)O (stereo not given)
Outgoing: 0.663

Incoming: Now the molecule COC1CC2CCC(C)C(O)(O2)C(=O)C(=O)N2CCCCC2C(=O)OC(C(C)CC2CCC(OCCO)C(OC)C2)CC(=O)C(C)/C=C(\C)C(O)C(OC)C(=O)C(C)CC(C)/C=C/C=C/C=C/1C (stereo not given)
Outgoing: 0.921
